- Tested System: T1, human PD-L1 extracellular domain (human, UniProt Q9NZQ7 19-238)
- T1 construct: also called recombinant PD-L1; recombinant human PD-L1 extracellular domain protein
- T1 sequence (Q9NZQ7 19-238 limits assumed): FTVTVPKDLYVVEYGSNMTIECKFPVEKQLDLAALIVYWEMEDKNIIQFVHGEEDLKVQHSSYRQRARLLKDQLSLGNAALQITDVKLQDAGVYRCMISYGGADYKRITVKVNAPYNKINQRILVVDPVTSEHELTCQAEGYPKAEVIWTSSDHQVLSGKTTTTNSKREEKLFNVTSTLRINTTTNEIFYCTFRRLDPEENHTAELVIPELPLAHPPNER
- Assay Notes: BLI (Octet Red 96), antibody on anti-human Fc biosensor, PD-L1 ECD in solution, 1:1 global fit
Property Label: koff (s⁻¹)
Numbers only, in s⁻¹.

* AB5 (rabbit/human chimeric anti-PD-L1 antibody) (antibody, human IgG1, kappa, V domains shown, Rabbit variable domains on human IgG1 / human kappa constant domains; also called AB5 CHIMERIC) VH: QSVEESGGRLVTPGTPLTLTCTVSGIDLNTYDMIWVRQAPGKGLEWIGIITYSGSRYYANWAKGRFTISKTSTTVDLRITSPTTEDTATYFCARDYMSGSHLWGPGTLVTVSS VL: AYDMTQTPASVEVAVGGTVTIKCQASEDIYSFLAWYQLKPGQSPKLLIHSASSLASGVSSRFKGSGSGTHFTLTISGVECADAATYYCQQGYGKNNVDNAFGGGTEVVVKR | 0.000175
* AB2 (rabbit/human chimeric anti-PD-L1 antibody) (antibody, human IgG1, kappa, V domains shown, Rabbit variable domains on human IgG1 / human kappa constant domains; also called AB2 CHIMERIC) VH: QSLEESGGRLVTPGTPLTLTCTTSGIDLSTYDMIWVRQAPGKGLEYIGIISYVGNTYYASWAKGRFTLSKTSTTVDLRITSPTTEDTATYFCARDFISGSHLWGPGTLVTVSS VL: AYDMTQTPASVSAAVGGTVTINCQASESISSFLSWYQQKPGQRPRLLIFSASTLASGVPSRFKGSGSGTEFTLTISGVECADAATYYCQQGYSKSNVDNAFGGGTEVVVKR | 0.000166

Hey, can you go through the list below and give me koff for every item?
1. AB1 (rabbit/human chimeric anti-PD-L1 antibody) (antibody, human IgG1, kappa, V domains shown, Rabbit variable domains on human IgG1 / human kappa constant domains; purified by protein A from HEK-293 supernatants; also called AB1 CHIMERIC) VH: QEQLVESGGGLVQPEGSLTLTCKASGFSFSSGYDMCWVRRAPGKGLEWIACIAAGSAGITYDANWAKGRFTISKTSSTTVTLQMTSLTAADTATYFCARSAFSFDYAMDLWGPGTLVTVSS VL: DPVLTQTPASVEVAVGGTVTIKCQASQSISSHLNWYQQKPGQPPKLLIYKASTLASGVPSRFKGSGSGTEFTLTISSVQCDNAATYYCQQGYSWGNVDNVFGGGTEVVVKR
2. AB4 (rabbit/human chimeric anti-PD-L1 antibody) (antibody, human IgG1, kappa, V domains shown, Rabbit variable domains on human IgG1 / human kappa constant domains; also called AB4 CHIMERIC) VH: QSVEESGGRLVTPGTPLTLTCTVSGIDLSVINMGWVRQAPGEGLEWIGTITYVGNTYYASWAKGRFTISKTSTTVDLKITSPTTEDTATYFCARESGTIYYSYFNLWGQGTLVTVSS VL: AFELTQTPASVSEPVGGTVTIKCQASESISNYLSWYQQIPGQPPNLLIYYASNLASGVPSRFKGSGSGTEFTLTISDLECADAATYYCQSYYGGGSAYTFGGGTEVVVKR

1: 0.00015; 2: 0.000422
